- target_or_test_system: human M4 (hM4) (Homo sapiens)
- Construct: expressed in transfected cells
- assay_explanation: Calcium mobilization assay, hM4/Gqi5-CHO cells, EC20 acetylcholine (PAM)
- Type: cell-based
- particulars: relative to the R1 = methyl analogue
Give fold decrease in hM4 activity with R1 larger than methyl for every item shown.
Report only the number, with the unit fold understood.

Item CCc1nc(C)c2c(n1)sc1c(NCc3ccc(C(C)(C)O)cc3)nccc12 [22p] has what recorded fold decrease in hM4 activity with R1 larger than methyl? 4.0

Item Cc1nc(C2CC2)nc2sc3c(NCc4ccc(C(C)(C)O)cc4)nccc3c12 [22o] has what recorded fold decrease in hM4 activity with R1 larger than methyl? 9.3

* * *

- target_or_test_system: CYP 3A4 (Homo sapiens, UniProt P08684)
- Construct: from tissue; host or cells: pooled human liver microsomes (according to the earlier reading)
- Sequence (P08684 whole entry): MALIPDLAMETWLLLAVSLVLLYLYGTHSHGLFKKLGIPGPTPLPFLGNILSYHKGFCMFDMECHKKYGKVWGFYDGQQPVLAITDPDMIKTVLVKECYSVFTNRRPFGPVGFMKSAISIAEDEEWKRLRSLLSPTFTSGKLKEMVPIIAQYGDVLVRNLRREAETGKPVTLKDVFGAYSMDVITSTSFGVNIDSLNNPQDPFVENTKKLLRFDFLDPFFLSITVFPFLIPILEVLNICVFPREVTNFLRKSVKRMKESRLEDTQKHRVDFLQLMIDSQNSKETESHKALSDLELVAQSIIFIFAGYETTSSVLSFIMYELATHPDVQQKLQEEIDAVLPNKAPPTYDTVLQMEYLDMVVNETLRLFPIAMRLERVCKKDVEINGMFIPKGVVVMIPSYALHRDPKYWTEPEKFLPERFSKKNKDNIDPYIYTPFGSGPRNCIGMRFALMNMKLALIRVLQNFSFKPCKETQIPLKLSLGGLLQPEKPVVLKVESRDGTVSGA
- assay_explanation: P450 inhibition in pooled human liver microsomes
- Format: in vitro ADME
- particulars: pooled HLM, NADPH, CYP-specific probe substrates
property_measured: pIC50
Value format note: pIC50 is -log10 of concentration (mol/L); just state the number.

Item Cc1nc(C)c2c(n1)sc1c(NCc3ccc(C(C)(C)O)cc3)nccc12 [22g] has what recorded pIC50? 4.77

* * *

- assay_explanation: In vivo rat iv/po PK
- particulars: male, Sprague-Dawley, plasma; rat (SD), iv 1.0 mg/kg; read-out: CLp
property_measured: clearance (mL/min/kg)
Report only the number, with the unit mL/min/kg understood.

Item Cc1nc(C)c2c(n1)sc1c(NCc3ccc(C(C)(C)O)cc3)nccc12 [22g] has what recorded clearance? 4.9

* * *

- assay_explanation: In vivo rat iv/po PK
- particulars: male, Sprague-Dawley, plasma; rat (SD), po 30.0 mg/kg
property_measured: Cmax (ng/mL)
Report only the number, with the unit ng/mL understood.

Item Cc1nc(C)c2c(n1)sc1c(NCc3ccc(C(C)(C)O)cc3)nccc12 [22g] has what recorded Cmax? 4460

* * *

- target_or_test_system: human M4 (hM4) (Homo sapiens, UniProt P08173)
- Construct: expressed in transfected cells
- Sequence (P08173 whole entry): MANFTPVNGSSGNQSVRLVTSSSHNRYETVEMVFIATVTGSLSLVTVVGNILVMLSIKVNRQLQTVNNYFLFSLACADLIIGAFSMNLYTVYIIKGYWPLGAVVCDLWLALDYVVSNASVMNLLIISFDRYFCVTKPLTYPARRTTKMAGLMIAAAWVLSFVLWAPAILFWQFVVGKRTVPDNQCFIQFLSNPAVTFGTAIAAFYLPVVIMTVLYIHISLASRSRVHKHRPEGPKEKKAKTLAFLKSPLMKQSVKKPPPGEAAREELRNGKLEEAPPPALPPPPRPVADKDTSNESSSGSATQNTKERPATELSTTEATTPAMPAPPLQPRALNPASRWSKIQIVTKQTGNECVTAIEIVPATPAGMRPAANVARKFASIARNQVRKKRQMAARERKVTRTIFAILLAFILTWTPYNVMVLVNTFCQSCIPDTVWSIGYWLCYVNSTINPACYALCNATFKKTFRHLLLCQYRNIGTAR
- assay_explanation: Calcium mobilization assay, hM4/Gqi5-CHO cells, EC20 acetylcholine (PAM)
- Format: cell-based
- particulars: 14h vs 14c; 22g vs 14j; 22j vs 14k; 22k vs 14g; 22f vs 14e
property_measured: fold increase in hM4 potency (EC50) vs comparator analogue (fold)
Report only the number, with the unit fold understood.

Item Cc1nc(C)c2c(n1)sc1c(N3CCC(F)(F)C3)nccc12 [22f] has what recorded fold increase in hM4 potency (EC50) vs comparator analogue? 19

Item COc1ccc(CNc2nccc3c2sc2nc(C)nc(C)c23)cc1F [22j] has what recorded fold increase in hM4 potency (EC50) vs comparator analogue? 7

Item Cc1nc(C)c2c(n1)sc1c(N3CCCC3)nccc12 [22k] has what recorded fold increase in hM4 potency (EC50) vs comparator analogue? 4

Item Cc1nc(C)c2c(n1)sc1c(N3CC4(C3)CC(F)(F)C4)ncnc12 [14h] has what recorded fold increase in hM4 potency (EC50) vs comparator analogue? 16

* * *

- target_or_test_system: human M4 (hM4) (Homo sapiens, UniProt P08173)
- Construct: expressed in transfected cells
- assay_explanation: Calcium mobilization assay, hM4/Gqi5-CHO cells, EC20 acetylcholine (PAM)
- Format: cell-based
- particulars: calcium mobilization, hM4/Gqi5-CHO cells, EC20 acetylcholine; read-out: hM4 %ACh Max
property_measured: Emax (%)
Report only the number, with the unit % understood.

Item CCc1nc(C)c2c(n1)sc1c(NCc3ccc(C(C)(C)O)cc3)nccc12 [22p] has what recorded Emax? 81

Item Cc1nc(C)c2c(n1)sc1c(NC3CCCC3)ncnc12 [14f] has what recorded Emax? 56

Item Cc1nc(C)c2c(n1)sc1c(N3CCCC3)nccc12 [22k] has what recorded Emax? 77

Item Cc1nc(C)c2c(n1)sc1c(NCc3ccc(C(C)(C)O)cc3)ncc(C#N)c12 [compound 28] has what recorded Emax? 62

Item Cc1nc(C)c2c(n1)sc1c(NCc3ccc(C(C)(C)O)cc3)ncnc12 [14j] has what recorded Emax? 70

Item Cc1nc(C)c2c(n1)sc1c(CC(C)(C)C)nccc12 [23b] has what recorded Emax? 86

Item Cc1nc(C)c2c(n1)sc1c(NC3CCCC3)nccc12 [22d] has what recorded Emax? 73

Item Cc1nc(C)c2c(n1)sc1c(N3CCC3)ncnc12 [14d] has what recorded Emax? 60

Item Cc1nc(C)c2c(n1)sc1c(N3CC4(COC4)C3)ncnc12 [14c] has what recorded Emax? 76

Item Cc1nc(C2CC2)nc2sc3c(N4CCCC4)nccc3c12 [22q] has what recorded Emax? 65

* * *

- assay_explanation: In vivo rat iv/po PK
- particulars: male, Sprague-Dawley, plasma; rat (SD), iv 1.0 mg/kg
property_measured: half-life (h)
Report only the number, with the unit h understood.

Item Cc1nc(C)c2c(n1)sc1c(NCc3ccc(C(C)(C)O)cc3)nccc12 [22g] has what recorded half-life? 3.4

* * *

- assay_explanation: In vivo dog iv/po PK
- particulars: male, plasma; dog (beagle), iv 0.5 mg/kg
property_measured: MRT (h)
Report only the number, with the unit h understood.

Item Cc1nc(C)c2c(n1)sc1c(NCc3ccc(C(C)(C)O)cc3)nccc12 [22g] has what recorded MRT? 1.6

* * *

- target_or_test_system: human M4 (hM4) (Homo sapiens)
- Construct: expressed in transfected cells
- assay_explanation: Calcium mobilization assay, hM4/Gqi5-CHO cells, EC20 acetylcholine (PAM)
- Assay type: cell-based
- particulars: calcium mobilization, hM4/Gqi5-CHO cells, EC20 acetylcholine
Give hM4 pEC50 for every item shown.
Give only the figure.

Item Cc1nc(C)c2c(n1)sc1c(N3CCC(F)(F)C3)ncnc12 [14e] has what recorded hM4 pEC50? 6.20

Item Cc1nc(C)c2c(n1)sc1c(N3CCCC3)ncnc12 [14g] has what recorded hM4 pEC50? 6.54

Item COc1ccc(CNc2ncnc3c2sc2nc(C)nc(C)c23)cc1F [14k] has what recorded hM4 pEC50? 5.94

Item Cc1nc(C)c2c(n1)sc1c(NCc3ccc(C(C)(C)O)cc3)ncnc12 [14j] has what recorded hM4 pEC50? 5.90

Item Cc1nc(C2CC2)nc2sc3c(NCc4ccc(C(C)(C)O)cc4)nccc3c12 [22o] has what recorded hM4 pEC50? 5.86

Item Cc1nc(C2CC2)nc2sc3c(N4CCCC4)nccc3c12 [22q] has what recorded hM4 pEC50? 6.00

Item Cc1nc(C)c2c(n1)sc1c(N3CCCC3)nccc12 [22k] has what recorded hM4 pEC50? 7.14

Item Cc1nc(C)c2c(n1)sc1c(NC3CCCC3)ncnc12 [14f] has what recorded hM4 pEC50? 6.25

Item Cc1nc(C)c2c(n1)sc1c(NCc3ccc(C(C)(C)O)cc3F)nccc12 [22h] has what recorded hM4 pEC50? 6.08

Item Cc1nc(C)c2c(n1)sc1c(N3CC4CC4C3)ncnc12 (stereo not drawn) [14i] has what recorded hM4 pEC50? 6.81

Item Cc1nc(C)c2c(n1)sc1c(NC3CCCC3)nccc12 [22d] has what recorded hM4 pEC50? 6.87

Item Cc1nc(C)c2c(n1)sc1c(NCc3ccc(C(C)(C)O)cc3)ncc(Cl)c12 [26a] has what recorded hM4 pEC50? 5.48

Item Cc1nc(C)c2c(n1)sc1c(NC3CCC3)nccc12 [22c] has what recorded hM4 pEC50? 6.52

Item Cc1nc(C)c2c(n1)sc1c(N3CCC3)ncnc12 [14d] has what recorded hM4 pEC50? 5.84

Item Cc1nc(C)c2c(n1)sc1c(N3CC4(COC4)C3)ncnc12 [14c] has what recorded hM4 pEC50? 5.80

* * *

- target_or_test_system: human M2 (Homo sapiens, UniProt P08172)
- Sequence (P08172 whole entry): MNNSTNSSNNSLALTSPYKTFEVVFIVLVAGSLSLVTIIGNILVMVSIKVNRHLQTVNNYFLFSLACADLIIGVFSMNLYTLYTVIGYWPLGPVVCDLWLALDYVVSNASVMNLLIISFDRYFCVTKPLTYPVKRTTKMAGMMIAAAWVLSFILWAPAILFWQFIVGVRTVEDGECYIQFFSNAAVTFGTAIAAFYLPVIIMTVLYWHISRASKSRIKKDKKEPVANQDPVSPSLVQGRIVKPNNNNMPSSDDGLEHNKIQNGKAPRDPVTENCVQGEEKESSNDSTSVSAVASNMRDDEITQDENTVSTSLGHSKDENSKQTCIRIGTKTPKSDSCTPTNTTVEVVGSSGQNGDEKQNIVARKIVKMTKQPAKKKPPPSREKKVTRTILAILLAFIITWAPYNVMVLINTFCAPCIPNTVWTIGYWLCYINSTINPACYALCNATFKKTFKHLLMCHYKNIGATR
- assay_explanation: Calcium mobilization assay, muscarinic selectivity
property_measured: pEC50
Value format note: pEC50 is -log10 of concentration (mol/L); just state the number.

// lookup pEC50 | system=human M2 (Homo sapiens, UniProt P08172) | key= Cc1nc(C)c2c(n1)sc1c(NCc3ccc(C(C)(C)O)cc3)nccc12 [22g] 5.21

* * *

- assay_explanation: Binding in brain homogenate from rat (equilibrium dialysis)
- Assay type: in vitro ADME
- particulars: rat, brain homogenate, in %; read-out: fu,brain (rat brain homogenate)
property_measured: fraction unbound at 6 h, 1 µM

Item Cc1nc(C)c2c(n1)sc1c(N3CCCCC3)nccc12 [22e] has what recorded fraction unbound at 6 h, 1 µM? < 0.01

Item Cc1nc(C)c2c(n1)sc1c(NCc3ccc(C(C)(C)O)cc3)nccc12 [22g] has what recorded fraction unbound at 6 h, 1 µM? 0.01 to 0.05

Item Cc1nc(C)c2c(n1)sc1c(NCc3ccc(C(C)(C)O)c(F)c3)nccc12 [22i] has what recorded fraction unbound at 6 h, 1 µM? < 0.01

Item Cc1nc(C)c2c(n1)sc1c(N3CC4(C3)CC(F)(F)C4)ncnc12 [14h] has what recorded fraction unbound at 6 h, 1 µM? 0.012 to 0.033

Item Cc1nc(C)c2c(n1)sc1c(N3CCCC3)nccc12 [22k] has what recorded fraction unbound at 6 h, 1 µM? < 0.01

Item Cc1nc(C)c2c(n1)sc1c(N3CCC(F)(F)C3)nccc12 [22f] has what recorded fraction unbound at 6 h, 1 µM? 0.012 to 0.033

Item Cc1nc(C)c2c(n1)sc1c(N3CC4CC4C3)ncnc12 (centres unmarked) [14i] has what recorded fraction unbound at 6 h, 1 µM? 0.01 to 0.05

Item COc1ccc(CNc2nccc3c2sc2nc(C)nc(C)c23)cc1F [22j] has what recorded fraction unbound at 6 h, 1 µM? < 0.01

The measurements presented in this section are drawn from paper PMC11487561.
